measured.attribute: melting point

Problem: For the molecule Cc1cc(O)c(S(=O)(=O)CC2CCCCC2)c(=O)o1 , what melting point is on record?
Solution: 104 to 106 °C

Problem: For the molecule CC(=O)N(c1nc2cc3nc(N(C(C)=O)N4CCN(C)CC4)sc3cc2s1)N1CCN(C)CC1 , what melting point is on record?
Solution: 256 to 258 °C

Problem: For the molecule CCNC(=NC#N)NCc1cccnc1 , what melting point is on record?
Solution: 177 to 179 °C

Problem: For the molecule CC1(C)C(=O)Oc2ccc3cc(C(=O)NCC(F)(F)F)c(Cn4cncn4)cc3c21 , what melting point is on record?
Solution: 200 to 201 °C

Problem: For the molecule Cc1c(Br)c(=O)n(-c2cc(C(=O)OC(C)C)c(Cl)cc2F)c(=O)n1C , what melting point is on record?
Solution: 127 to 129 °C

----------
melting point overview

molecule | measured.attribute | result
O=C(O)CCc1cc2cc(Cl)c(Cl)cc2n1S(=O)(=O)c1ccccc1 | melting point | 192 to 198 °C
CCCCCOc1ccc2cc(CC[C@@](C)(N)COP(=O)(O)O)ccc2c1 | melting point | 266 to 267 °C

Problem: For the molecule O=c1ncc(C(F)(F)F)cn1COc1ccc(Cl)cc1 , what melting point is on record?
Solution: 98 °C

Problem: For the molecule CCc1noc(C)c1-c1[nH]c2ccccc2c1CC(=O)O , what melting point is on record?
Solution: 194 to 197 °C

Problem: For the molecule Cc1cc(CCCCCSc2ccc(C3=NCCO3)cc2)on1 , what melting point is on record?
Solution: 89 to 91 °C

Problem: For the molecule COc1ccc(CN(C)CCc2ccc(NC(=O)c3cccc4c(=O)c5cccc(C)c5[nH]c34)cc2)cc1OC , what melting point is on record?
Solution: 119 °C

Problem: For the molecule O=c1c2ccccc2oc2cc(O)ccc12 , what melting point is on record?
Solution: 242 °C

Problem: For the molecule COc1ccc(-c2ccc(C(C)=O)cc2)cc1 , what melting point is on record?
Solution: 156 °C

Problem: For the molecule CC(C)c1ccc(C(=O)Cc2cccs2)c(C(C)C)c1OS(N)(=O)=O , what melting point is on record?
Solution: 133 to 136 °C

Problem: For the molecule COc1ccc(-c2nnc(C(Cl)(Cl)Cl)o2)cc1OC , what melting point is on record?
Solution: 171 to 173 °C

Problem: For the molecule COc1cc2c(cc1OCCCN1CCC(c3[nH]cc4cc(F)ccc34)CC1)CCCC2=O , what melting point is on record?
Solution: 129 to 131 °C

Problem: For the molecule CC(=O)OCCn1nc(O)c2[nH]c3cc(Cl)ccc3c(=O)c2c1=O , what melting point is on record?
Solution: 307 to 309 °C

----------
melting point overview

compound | melting point
COc1cc2c(cc1-c1cncs1)-c1c(-c3cncs3)c3c(n1CC2)C(=O)N(C(C)(C)C)CCOC3 | 254 to 255 °C
O=C(O)Cc1ccc2c(c1)C(c1ccccc1)C(=O)O2 (centres undefined) | 136 °C
CC(C)(C)[Si](C)(C)Oc1ccc2c3c1OC1C(C4OCCO4)CCC4(O)C(C2)N(CC2CC2)CCC314 (centres undefined) | 108 to 109 °C
O=c1ccn(-c2ccc(C(F)(F)F)cc2)nc1-c1ccnn1-c1ccccc1 | 237 to 238 °C
Cc1ccc(S(=O)(=O)OCCC(=C(c2ccccc2)c2ccccc2)c2ccccc2)cc1 | 137 to 139 °C

Problem: For the compound CCOCOC1(C(=O)CO)C(CC)CC2C3CC(CC)C4=CC(=O)C=CC4(C)C3C(O)CC21C (centres undefined) , what melting point is on record?
Solution: 100 to 102 °C

----------
measured.attribute: melting point

Past entries and their recorded results:
compound | melting point
COc1cc(C(=O)O)ccc1Oc1ccccc1N | 192 to 194 °C
COC1(c2cccc3[nH]ccc23)CCNCC1 | 216 °C
c1ccc2c(c1)CCCc1c-2n[nH]c1-c1ccncc1 | 217 to 219 °C

Problem: For the compound CNC(=O)Nc1c(C)nn(-c2cc(OC(C)C)c(Cl)cc2F)c1C , what melting point is on record?
Solution: 184 to 185 °C

Problem: For the compound CCOC(=O)CCc1nc(-c2cccc(OC)c2)nc2ccccc12 , what melting point is on record?
Solution: 70 °C

Problem: For the compound O=C1N(Cc2ccccc2)C(O)C2CSC(c3ccccc3)N12 (mixture of isomers) , what melting point is on record?
Solution: 151 to 153 °C

----------
melting point overview

Past entries and their recorded results:
molecule | melting point
CCCCNC(=O)Nc1ccc(OCC)cc1C(=O)NCC1CCN(C(c2ccccc2)c2ccccc2)CC1 | 191 to 193 °C
COC(=O)c1ccc(Cc2cn(C)c3ccc(C=O)cc23)c(OC)c1 | 116 to 118 °C
COC(=O)c1ccc2oc(-c3ccccc3OCC(C)OC(=O)c3ccccc3)cc(=O)c2c1 (stereo not given) | 211 to 213 °C
O=C(C=Cc1ccccc1)Oc1ccc(Br)cc1 | 113 °C

Problem: For the molecule CC(=O)c1csc2ccc(OS(=O)(=O)c3ccccc3)cc12 , what melting point is on record?
Solution: 129 to 130 °C

----------
melting point overview

compound | melting point
CCC(NC(C)=O)c1ccc(CN2CCN(c3ccc(F)cc3F)CC2)cc1 (stereo unspecified) | 137 to 138 °C
IC12C3C4C5C3C1C5C42 (stereo unspecified) | 32 to 33 °C
O=C(N[C@H]1CC[C@H](CCN2CCN(c3nccc4c3OCC4)CC2)CC1)c1ccc(Cl)cc1 | 252 °C
N#Cc1c(N2CCN(C(=O)C3CCCO3)CC2)c2ccccc2n(Cc2ccc(F)cc2)c1=O (stereo unspecified) | 123 to 135 °C
CCOC(=O)c1cn(C)c2nc3cc(N4CCN[C@@H](c5ccccc5)C4)c(F)cc3cc2c1=O | 221 °C

Problem: For the compound COC12c3ccc(Cl)cc3CC1SC(=CN)N2C (stereo unspecified) , what melting point is on record?
Solution: 65 to 70 °C

Problem: For the compound O=C1OC2(CCNCC2)CN1Cc1ccccc1 , what melting point is on record?
Solution: 69 to 71 °C

Problem: For the compound O=C(O)CCC(=O)c1ccc(-c2cccc(F)c2)cc1 , what melting point is on record?
Solution: 153 to 155 °C

Problem: For the compound O=C(O)c1nc(-c2ccc(Cl)cc2Cl)n(-c2ccc(Cl)cc2)c1CO , what melting point is on record?
Solution: 138 °C

Problem: For the compound CCOC(=O)CCc1cccc(N)c1 , what melting point is on record?
Solution: 132 to 135 °C

Problem: For the compound O=C(Oc1cc(OC(=O)c2ccccc2)c(C(=O)C=Cc2ccc(O)cc2)c(OC(=O)c2ccccc2)c1)c1ccccc1 , what melting point is on record?
Solution: 198 to 200 °C

Problem: For the compound COc1ccc(Nc2ccccc2C=C(Br)Br)cc1OC , what melting point is on record?
Solution: 83 to 85 °C

Problem: For the compound CCC(CC)N(O)C(=O)NC(C)(C)c1cccc(C(C)(C)NC(=O)N(O)C(CC)CC)c1 , what melting point is on record?
Solution: 170 to 172 °C

Problem: For the compound CC(C)Cc1c(C(=O)O)c(C(F)F)nc(C(F)(F)F)c1C(C#N)=C1CCCO1 , what melting point is on record?
Solution: 192 to 193 °C

Problem: For the compound CCCCCN(CCc1ccccc1)C(=O)NCC(C)Cc1ccncc1 (stereo unspecified) , what melting point is on record?
Solution: 49 to 50 °C

----------
measured.attribute: melting point

Problem: For the compound CCCc1c(OCCCSCCO)ccc(C(C)=O)c1O , what melting point is on record?
Solution: 72 to 74 °C

Problem: For the compound N#Cc1c(NC(=O)C2CCCCC2)sc(-c2ccccc2)c1[N+](=O)[O-] , what melting point is on record?
Solution: 213 to 214 °C

Problem: For the compound OC1CCC2(CC1)Cc1ccccc1C2 , what melting point is on record?
Solution: 76 to 78 °C

Problem: For the compound CC(C)(C)Sc1c(CC(C)(C)C(=O)O)n(Cc2ccc(Cl)cc2)c2ccc(OCc3ccc4ccccc4c3)cc12 , what melting point is on record?
Solution: 213 to 214 °C

Problem: For the compound COc1cc(C(C)C)c2c(c1)S(=O)(=O)N(COc1cc(C)oc(=O)c1Cl)C2=O , what melting point is on record?
Solution: 182 to 184 °C

Problem: For the compound NC(=O)/C=C1/c2cc(F)ccc2CC1O (stereo unspecified) , what melting point is on record?
Solution: 201 to 202 °C

Problem: For the compound CSC1=NCCc2nc(C)nn21 , what melting point is on record?
Solution: 75.5 to 76.5 °C

Problem: For the compound CCC(=O)Nc1cccc(-c2ccc(Cl)nn2)c1 , what melting point is on record?
Solution: 184 to 187 °C

src = a melting point compilation (Tetko et al.; mined from patent text by program, amines drawn as free bases though some values may be those of a salt)
